system tested: TAOK1 (Homo sapiens)
Sequence (Q7L7X3 1-1001): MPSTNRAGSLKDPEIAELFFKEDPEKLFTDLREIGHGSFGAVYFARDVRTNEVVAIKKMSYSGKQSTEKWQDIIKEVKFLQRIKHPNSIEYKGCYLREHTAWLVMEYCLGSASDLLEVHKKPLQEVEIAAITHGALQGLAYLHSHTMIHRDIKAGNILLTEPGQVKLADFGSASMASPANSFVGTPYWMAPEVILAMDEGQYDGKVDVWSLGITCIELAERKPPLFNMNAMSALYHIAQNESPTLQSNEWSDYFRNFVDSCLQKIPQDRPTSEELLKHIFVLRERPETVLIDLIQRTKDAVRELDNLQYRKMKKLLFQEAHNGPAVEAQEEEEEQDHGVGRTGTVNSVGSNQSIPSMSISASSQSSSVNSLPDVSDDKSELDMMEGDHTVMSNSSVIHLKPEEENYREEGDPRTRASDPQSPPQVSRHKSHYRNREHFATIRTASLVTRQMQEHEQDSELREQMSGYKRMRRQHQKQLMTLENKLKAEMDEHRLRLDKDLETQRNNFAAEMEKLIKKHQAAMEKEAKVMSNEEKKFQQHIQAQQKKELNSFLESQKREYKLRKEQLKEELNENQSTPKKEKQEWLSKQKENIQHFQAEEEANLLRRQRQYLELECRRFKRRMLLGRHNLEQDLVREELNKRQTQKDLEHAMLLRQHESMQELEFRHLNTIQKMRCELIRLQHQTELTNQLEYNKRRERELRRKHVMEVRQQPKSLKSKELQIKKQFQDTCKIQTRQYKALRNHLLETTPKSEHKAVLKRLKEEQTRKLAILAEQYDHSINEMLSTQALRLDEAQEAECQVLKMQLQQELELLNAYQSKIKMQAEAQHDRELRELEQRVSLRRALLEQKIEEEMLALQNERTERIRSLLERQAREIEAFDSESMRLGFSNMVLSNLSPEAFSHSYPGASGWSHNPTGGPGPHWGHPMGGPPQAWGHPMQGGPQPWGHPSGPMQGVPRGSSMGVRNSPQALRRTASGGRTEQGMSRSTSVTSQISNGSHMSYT
protocol notes: biochemical
Parameters: species or system HEK293/K-562/placenta mixed human extract; Kinobeads chemoproteomic competition binding, quantified by TMT LC-MS/MS, dose response up to 20 uM

| molecule | system tested | IC50 |
| --- | --- | --- |
| COc1nc(N[C@H]2CC[C@H](NS(=O)(=O)CC(C)C)CC2)nc2[nH]nc(N3CCOC[C@H]3C)c12 [compound 39] | TAOK1 (Homo sapiens) | ≥ 20 µM |
